observed_property: melting point

Input: # query: melting point of entry `CC(C)Oc1ncccc1O`
Output: 57 to 59 °C

Input: Query: melting point; subject: `O=C(O)c1ccc2noc(-c3ccccc3)c2c1`
Output: 242 to 244 °C

Input: Return reported melting point; argument: Brc1ccc(C2CNCCO2)cc1 (centres undefined)
Output: 53 to 55 °C

Input: For CC(C)(C)OC(=O)NC1CC2CCCC(C1)C2N (centres undefined) , what is its reported melting point?
Output: 110 to 112 °C

Input: Consider the compound `Cc1cc([N+](=O)[O-])ccc1NC(=O)CCl` and give its measured melting point.
Output: 118 to 120 °C

Input: Given the compound `COC(=O)c1csc([N+](=O)[O-])c1` , what is its reported melting point?
Output: 77 to 79 °C

Input: What value of melting point has been reported for the following compound? `Cc1ccc(S(=O)(=O)Cl)cc1C(=O)O`
Output: 149 to 151 °C

Input: Consider the compound `CC(C)(C(=O)O)c1ccc2ccccc2c1` and give its measured melting point.
Output: 146 to 148 °C

Input: I am curious: what melting point value has been reported for `O=C(O)c1noc(-c2cc(F)cc(F)c2)n1` ?
Output: 136 to 138 °C

Input: Name the reported melting point value associated with the compound `O=C(O)c1ccccc1SCCO`
Output: 125 to 127 °C

Input: Bench note: what melting point did `O=Cc1ccc(Cl)nc1` show?
Output: 75 to 77 °C

Input: I am curious: what melting point value has been reported for `c1csc(-c2ncc[nH]2)c1` ?
Output: 191 to 193 °C

Input: Look up melting point: O=C1CSC(C(F)(F)F)O1 (centres undefined)
Output: 65 to 67 °C

Input: Param item = `Cc1ccc(N(C)C(C)C)c(C(=O)O)c1` ; retrieve measured melting point.
Output: 69 to 71 °C

Input: Name the reported melting point value associated with the compound CS(=O)(=O)OC1CCCC(S(C)(=O)=O)C1 (centres undefined)
Output: 119 to 121 °C

Input: Given the entry `CC(=O)c1ccc(C#N)c(F)c1` , report its measured melting point.
Output: 62 to 64 °C

Input: Bench note: what melting point did `Nc1ccn(Cc2ccccn2)n1` show?
Output: 88 to 90 °C

Input: Dear colleague, I am looking for the recorded melting point of the following compound: `CC(C)c1cc(N)no1`
Output: 64 to 66 °C

Input: Could you share which melting point value was measured for `CCOC=C1C(=O)N(c2ccc(OCC)cc2)C(=O)c2ccccc21` ?
Output: 175 to 177 °C

Input: GET /values?readout=melting point&item= `CC(=O)c1cnn(-c2ccccn2)c1C`
Output: 75 to 77 °C

Input: Which melting point value belongs to `O=C(O)c1cc(Cl)ccc1OCC(F)(F)F` ?
Output: 121 to 123 °C

Input: Sample `COc1ccc(NC(=O)c2ccc(CCl)cc2)cc1` — what was its melting point?
Output: 189 to 191 °C

Input: Field request: melting point | item: `FC(F)Sc1ccc(Nc2nnc(S)s2)cc1`
Output: 188 to 190 °C

Input: Quick one: melting point for `O=C1CSc2ccncc2N1` ?
Output: 203 to 205 °C

Input: Which melting point reading was recorded for the compound `Cc1c(Cl)cc(C(=O)O)cc1S(=O)(=O)Cl` ?
Output: 167 to 169 °C

Input: Fill blank: measured melting point of the compound `COC(=O)CNc1ccc(Br)cn1` is ____.
Output: 105 to 107 °C

Input: Would you kindly share the measured melting point for `NCC1(C(N)=O)CCOCC1` ?
Output: 113 to 115 °C

Input: Which value of melting point has been reported for `CCc1nsc(S)n1` in the records?
Output: 144 to 146 °C

Input: // lookup melting point for `CC(C)(C)c1nccc(=O)[nH]1`
Output: 205 to 207 °C

* * *

observed_property: melting point

Input: What does the data say about its melting point? Entry: CC(=O)NC(Cc1c[nH]c2ccc(Br)cc12)C(=O)O (stereo not given)
Output: 206 to 208 °C

Input: Any idea what melting point was measured for `Nc1ccnc(OCC(F)(F)F)c1` ?
Output: 39 to 41 °C

Input: Sample `COc1ccc(-c2cc(C(=O)O)no2)c(F)c1` — what was its melting point?
Output: 194 to 196 °C

Input: Requested field: melting point. Item: `Nc1nc2ccccc2nc1Cl`
Output: 141 to 143 °C

Input: melting point for `Clc1ncnc2c(Br)cccc12` ?
Output: 159 to 161 °C

Input: Bench note: what melting point did `N#Cc1cc(S(N)(=O)=O)ccc1F` show?
Output: 142 to 144 °C

Input: Given the entry `Cc1ccc(NS(=O)(=O)c2ccc(N)cc2)cc1C` , report its measured melting point.
Output: 150 to 152 °C

Input: # get_value(readout='melting point', item= `O=C(O)c1ccc(Oc2ccc(Cl)cn2)cc1` )
Output: 215 to 217 °C

Input: # melting point lookup, item `COc1ccc(C)cc1-n1ccc(C(=O)O)n1`
Output: 158 to 160 °C

Input: What value of measured melting point is listed for `N#Cc1cccnc1N1CCC(C(N)=O)CC1` ?
Output: 177 to 179 °C

Input: Need melting point, item O=C(CCl)N1N=C(c2cc3ccccc3o2)CC1c1ccco1 (stereo not given)
Output: 165 to 167 °C

Input: Tell me the measured melting point of `COc1ccc2cc(/C=C/C(=O)O)ccc2c1` , please.
Output: 183 to 195 °C

Input: # melting point lookup, item `O=C1CCOc2c(F)cc(F)cc21`
Output: 135 to 137 °C

Input: Requested read-out: melting point. Entry: `Cn1cc([N+](=O)[O-])cc1C(=O)O`
Output: 199 to 201 °C

Input: Field request: melting point | item: `Nc1ccc(S(=O)(=O)N2CCC(Cc3ccccc3)CC2)cc1`
Output: 153 to 155 °C

Input: Can you share its melting point? I mean this compound: `O=C(O)c1c[nH]nc1-c1ccccc1`
Output: 286 to 288 °C

Input: Can you look up the measured melting point of O=C(O)COCCN1CCN(C(c2ccccc2)c2ccc(Cl)cc2)CC1 (stereo not given) for me?
Output: 224 to 226 °C

Input: # lookup: melting point of `O=C1N[C@H](C(=O)O)CS1`
Output: 166 to 170 °C

Input: Param item = `CCc1ccc(C(=O)c2ccc(N)cc2)o1` ; retrieve measured melting point.
Output: 124 to 126 °C

Input: Find the recorded melting point belonging to Cc1ccc(C(NC(=O)CCl)c2cccs2)cc1 (stereo not given) and report it.
Output: 110 to 112 °C

Input: If you can, please state the reported melting point value of `CNS(=O)(=O)c1ccc(C)c(N)c1` .
Output: 83 to 85 °C

Input: Consider the compound shown here: `CNc1ccc(Br)nc1` What is its recorded melting point?
Output: 57 to 59 °C

Input: Entry under review: `CC(=O)N1CCN(c2ccc(CO)cc2)CC1` . Reported melting point?
Output: 146 to 148 °C

Input: Fill blank: measured melting point of the compound `O=C(CCl)n1nc2ccccn2c1=O` is ____.
Output: 164 to 166 °C

Input: Any idea what its melting point is? The compound is `Cc1nc(-c2ccc(O)cc2)cs1`
Output: 210 to 212 °C

Input: Can you share its melting point? I mean this compound: `O=C(O)c1cc(Br)ccc1F`
Output: 179 to 182 °C

Input: Can you share its melting point? I mean this compound: `CCOc1ccc(NS(=O)(=O)c2ccc(OC)c(N)c2)cc1`
Output: 94 to 95 °C

Input: Name the recorded melting point for `O=[N+]([O-])c1ccc2[nH]c3c(c2c1)CCCC3` .
Output: 172 to 174 °C

Input: Need melting point, item COc1ccc(OC)c(NC(=O)C(C)Cl)c1 (stereo not given)
Output: 56 to 58 °C

Input: Need melting point, item `O=[N+]([O-])c1ccc(CCl)c(Cl)c1`
Output: 50 to 52 °C

Input: Entry `Cc1nc2ccccc2c(C)c1C(=O)O` : reported melting point = ?
Output: 186 to 188 °C

Input: What melting point value was documented for this compound, `N#Cc1ccccc1Oc1cnccn1` ?
Output: 73 to 75 °C

Input: Looking for the measured melting point of `NCC1(O)CCOCC1` , can you help?
Output: 65 to 67 °C

Input: Could you share which melting point value was measured for `CC(C)(C)Nc1ccc(C(N)=NO)nc1` ?
Output: 139 to 141 °C

Input: Reported melting point for `COc1cc(N)ccc1NC(C)=O` : what is it?
Output: 121 to 123 °C

Input: // melting point lookup, key: Cc1ccc(N2CCC(N)C2=O)cc1 (stereo not given)
Output: 97 to 99 °C

Input: // query melting point value for entry `O=Cc1nc(-c2ccccc2)c[nH]1`
Output: 170 to 172 °C

Input: I am curious: what melting point value has been reported for `CC(C)(C)OC(=O)N1CCC(OC(=O)c2cccc(N)c2)CC1` ?
Output: 124 to 126 °C

Input: Look up melting point for this compound: `COc1ccc(N)cc1-n1nnnc1C`
Output: 130 to 132 °C

Input: Tell me the measured melting point of `CN1CC(=O)N(CC(=O)Nc2ccccc2)C1=O` , please.
Output: 279 to 281 °C

Input: State the recorded melting point for this entry: `CC(C)N1C(=O)c2ccc(C(=O)O)cc2S1(=O)=O`
Output: 238 to 240 °C

Input: # lookup: melting point of `O=C(O)CC1CCSCC1`
Output: 69 to 71 °C

Input: Suppose we examine the compound `O=C(O)c1cccnc1NC1CCCC1` ; what melting point value has been reported?
Output: 222 to 224 °C

Input: Field request: melting point | item: `O=S(=O)(Nc1nc2ccccc2nc1Cl)c1cc(F)ccc1F`
Output: 250 to 252 °C

Input: melting point for `CN(C)C(=O)c1cccnc1Cl` ?
Output: 69 to 71 °C

Input: I would be grateful if you could share the reported melting point for `OCc1nnnn1-c1ccccc1` .
Output: 100 to 102 °C

Input: Looking for the measured melting point of `CN(C)c1ccc(C=O)cc1[N+](=O)[O-]` , can you help?
Output: 104 to 106 °C

Input: // query melting point value for entry `O=c1ccc(-c2ccccc2)n[nH]1`
Output: 201 to 204 °C

Input: What measured melting point goes with COc1ccc(C2CCCCC(O)C2)cc1 (stereo not given) ?
Output: 49 to 51 °C

Input: Any idea what its melting point is? The compound is `CCOC(=O)c1c[nH]n2c1nc(=O)c1ccccc12`
Output: 201 to 203 °C

Input: Sample `CC1(C)SC(=O)NC1=O` — what was its melting point?
Output: 77 to 79 °C

Input: I have this compound here, `CCc1ccc(C(C)(C)C(=O)O)cc1` , and I need its recorded melting point.
Output: 52 to 54 °C

Input: Recorded melting point for `O=C(O)CNS(=O)(=O)c1ccc(Cl)c(Cl)c1` , please?
Output: 127 to 129 °C

Input: Item `COc1cccc(OC)c1CC(=O)O` has what recorded melting point?
Output: 149 to 151 °C

Input: Tell me the measured melting point of `Nc1onc(C2CCCC2)c1-c1ccc2c(c1)OCO2` , please.
Output: 122 to 124 °C
